tested on: HL-60(TB) leukemia; assay: NCI tumour cell line growth inhibition, 48 h
Assign Yes whenever TGI does not fall below 30 µM; assign No whenever it does.

Tell me whether TGI is at least 30 µM here: CC(=O)Oc1ccc2oc(=O)cc(C)c2c1
Yes

Tell me whether TGI is at least 30 µM here: O=C(NC1CCC(Br)CC1)C1CCCC(S(=O)(=O)NC2CCCCC2)C1 (stereo not drawn)
Yes

Tell me whether TGI is at least 30 µM here: O=C(O)CCC(NC(=O)c1ccc(Nc2nc3ccc(C(F)(F)F)cc3nc2-c2ccccc2)cc1)C(=O)O (stereo not drawn)
Yes

Tell me whether TGI is at least 30 µM here: Cn1c(/C=C/CO)c(CO)c2c1C(=O)C=C(N1CC1)C2=O
No

Tell me whether TGI is at least 30 µM here: COc1cccc2cc(N(C)c3ncnc4ccccc34)ccc12
No

Tell me whether TGI is at least 30 µM here: [N-]=[N+]=NCCCn1c2c(c3ccccc3c1=O)C(=O)c1cc(Br)ccc1-2
Yes

Tell me whether TGI is at least 30 µM here: Cc1cc(C)nc(NS(=O)(=O)c2ccc(NC(=O)c3ccc(Cl)c4c(Nc5ccc(S(=O)(=O)Nc6cc(C)on6)cc5)c5ccccc5nc34)cc2)n1
No

Tell me whether TGI is at least 30 µM here: CSc1nc(SC)c2cnn(CC3CO3)c2n1 (stereo not drawn)
Yes

Tell me whether TGI is at least 30 µM here: CCC(=C/[C@H](C)C/C=C/C(C)=C/[C@@H](C)C(=O)[C@@H](C)[C@H](O)[C@@H](C)CC)/C=C/[C@@H]1OC(=O)C=C[C@@H]1C
No

Tell me whether TGI is at least 30 µM here: CO/C(N)=C(\C#N)N=Cc1cccnc1
Yes

Tell me whether TGI is at least 30 µM here: O=[N+]([O-])c1ccc(N=Nc2c(O)[nH]c3ccc(Br)cc23)cc1
No

Tell me whether TGI is at least 30 µM here: FC(F)(F)c1cccc2ns[s+]c12
Yes

###

system: MALME-3M melanoma; experiment: NCI tumour cell line growth inhibition, 48 h
Exercise: for every item that follows, state its recorded TGI.
# number only, unit µM dropped from output

Sure, the documented TGI for CCOCCOc1ccc(OCCOCC)cc1 is 45.8

Sure, the documented TGI for COc1cccc2c1C(=O)c1c(O)c3c(c(O)c1C2=O)CC(O)(C(=O)CO)CC3OC1CC(N)C(I)C(C)O1 (stereo not given) is 25.1

Sure, the documented TGI for CN(CCNC(=O)c1nn(-c2ccccc2)c2c1ccc1ccccc12)CCNC(=O)c1nn(-c2ccccc2)c2c1ccc1ccccc12 is 3.84

Sure, the documented TGI for Cc1nc2ccccc2c(/C=C/c2ccc(Cl)cc2)c1C(=O)/C=C/c1ccc(F)cc1 is 3.01

Sure, the documented TGI for CC(C)(C)OC(=O)NCC(c1c[nH]c2ccc(Br)cc12)c1c[nH]c2ccc(Br)cc12 is 33.3

Sure, the documented TGI for N#C/C(=C\c1cc(Br)c(O)c(Br)c1)c1ccccn1 is 68.3

Sure, the documented TGI for CC/C=C\C/C=C\C[C@H]1C/C=C2/C(=O)C=C[C@@H]2C/C=C\CCC(=O)O1 is 8.04

Sure, the documented TGI for O=C(CNc1c(Cl)cccc1Cl)Nc1ccc(-c2nc3ccccc3s2)cc1 is 3.75

###

Exercise: for every item that follows, state its recorded TGI.
system: HCT-15 colon; assay: NCI tumour cell line growth inhibition, 48 h

Sure, the documented TGI for Cn1cc(C2=C(c3c4n(c5ccccc35)CCN(C(N)=S)C4)C(=O)NC2=O)c2ccccc21 is > 25 µM

Sure, the documented TGI for COC1=C(OC)C23CCc4ccc(OC)c(O)c4C2(CCN3)CC1=O (configuration not stated) is > 100 µM

Sure, the documented TGI for CCOc1ccc2nc3cc(N=Nc4ccc(N)nc4N)ccc3c(N)c2c1 is > 100 µM

Sure, the documented TGI for O=C1CCC(C(=O)O)C2=C1CCCC2 (configuration not stated) is > 100 µM

Sure, the documented TGI for O=C(O)CCC(NC(=O)c1ccc(Nc2nc3ccc(C(F)(F)F)cc3nc2-c2ccccc2)cc1)C(=O)O (configuration not stated) is > 100 µM

Sure, the documented TGI for CN(C)CCCNC(=O)N/N=C\c1cccc2ccccc12 is > 10 µM

Sure, the documented TGI for CC1=Nn2c(nnc2-c2ccc(Cl)cc2)NC(C)(C)C1 is > 100 µM

Sure, the documented TGI for CCCCCCCCCCCC[C@H](O)[C@H]1CC[C@H]([C@H](O)CCCC[C@H](O)CCCCC[C@@H](O)CC2=C[C@H](C)OC2=O)O1 is 57.8 µM

Sure, the documented TGI for O=C(NC1C2CC3CC(C2)CC1C3)c1ccncn1 (configuration not stated) is > 100 µM

Sure, the documented TGI for Oc1ccc(-c2cn3ccsc3n2)cc1O is > 100 µM

Sure, the documented TGI for O=c1[nH]c2ccc(N=Cc3c(O)[nH]c4ccccc34)cc2[nH]1 is > 25 µM

Sure, the documented TGI for FC(F)(F)CNc1nccc(-c2cnn3ncccc23)n1 is > 25 µM

Sure, the documented TGI for CCOCCOc1ccc(OCCOCC)cc1 is 40.3 µM

Sure, the documented TGI for O=C(CC(Cl)(Cl)C(Cl)(Cl)Cl)c1ccccc1 is 4.56 µM

Sure, the documented TGI for C/C=C\C(CC(=O)O)CN1CCC2=C(C1)C(S(=O)(=O)C(F)(F)F)c1ccccc12 (configuration not stated) is > 100 µM

Sure, the documented TGI for O=Cc1c(Cn2ccnc2)c2cc([N+](=O)[O-])ccc2n1Cc1ccccc1 is > 100 µM

Sure, the documented TGI for Cc1ccc(C)c(COc2cc(NC(=O)c3ccc4c(c3)OCO4)ccc2N(C)S(C)(=O)=O)c1 is > 100 µM

###

test system: HL-60(TB) leukemia; test: NCI tumour cell line growth inhibition, 48 h
measurement-kind: TGI

Sure, the documented TGI for c1cc2sc1CSCCSCCSC2 is > 100 µM

Sure, the documented TGI for COC1=C(OC)C23CCc4ccc(OC)c(O)c4C2(CCN3)CC1=O (stereo unspecified) is > 100 µM

Sure, the documented TGI for COc1cc(CCCl)c(CC2=NCCc3cc(OC)c(OC)cc32)cc1OC is > 100 µM

Sure, the documented TGI for CN(C)c1ccc(/C=N/N=C2\C(=O)Nc3c(Cl)cc(Cl)cc32)cc1 is > 100 µM

Sure, the documented TGI for Cc1ccc(Nc2nc(C)c(C(=O)CC(=O)C(=O)Nc3c(C)cccc3C(C)(C)C)s2)cc1 is > 100 µM

Sure, the documented TGI for CN(C)CCNC(=O)c1cnn(C)c1[N+](=O)[O-] is > 100 µM

Sure, the documented TGI for CCCCn1c(C)c(C(=O)CC)c(C(=O)NCCN2CCN(c3ccccc3Cl)CC2)c1C is 49.5 µM

Sure, the documented TGI for O=S(=O)(c1ccccc1)C1CN2OC1(S(=O)(=O)c1ccccc1)CC21CCCCC1 (stereo unspecified) is > 100 µM

Sure, the documented TGI for COc1cc(-c2nn(-c3ccc(NC(=O)NCCCNC(=O)c4ccccc4)cc3)cc2-c2ccncc2)ccc1Cl is 1.2 µM

Sure, the documented TGI for CC(=O)NC1=C(C)C(=O)c2c(nc3n2CCC3OC(=O)c2ccccc2)C1=O (stereo unspecified) is 5.13 µM

Sure, the documented TGI for O=C1Nc2ccccc2C1(c1c[nH]c2ccccc12)c1c[nH]c2ccccc12 is 37.6 µM

###

Exercise: for every item that follows, state its recorded TGI.
test system: RPMI-8226 leukemia; experiment: NCI tumour cell line growth inhibition, 48 h
# number only, unit µM dropped from output

Sure, the documented TGI for Cn1c(-c2c(N)n(Cc3ccc(C(F)(F)F)cc3)c3nc(C#N)c(C#N)nc23)nc2ccccc21 is 26.4

Sure, the documented TGI for Cc1c2cnccc2c(C)c2c1c1ccccc1n2CC1CO1 (stereo not given) is 7.6

Sure, the documented TGI for O=[N+]([O-])c1ccc2scc3c4ccccc4nc-3c2c1 is 6.18

Sure, the documented TGI for COc1cc(NC(=O)c2ccc(C(F)(F)F)nc2Nc2ccc(Cl)cc2C)cc(OC)c1OC is 17.5

Sure, the documented TGI for CC(=O)NC1=C(C)C(=O)c2c(nc3n2CCC3OC(=O)c2ccccc2)C1=O (stereo not given) is 5.62

Sure, the documented TGI for CCc1c(C)[nH]c2c1/C(=N/N=C1\CCCc3[nH]c(C)c(CC)c31)CCC2 is 33.9

Sure, the documented TGI for COc1cc(C(C)c2ccc3c(ccn3C)c2)cc(OC)c1OC (stereo not given) is 22.6

Sure, the documented TGI for COc1ccccc1-c1cc(=O)c2ccccc2n1C1CC1 is 5.64

Sure, the documented TGI for COC(=O)C([C@H]1CC[C@H](OCc2ccccc2)[C@@]1(O)COCc1ccccc1)C(C)(O)CCc1ccccc1 (stereo not given in full) is 43.3

Sure, the documented TGI for O=C1C(c2ccccc2)=[N+]([O-])c2cc([N+](=O)[O-])c(/C(Cl)=C/c3ccccc3)cc21 is 42.5

Sure, the documented TGI for CCOCCOc1ccc(OCCOCC)cc1 is 26.4

Sure, the documented TGI for c1ccc(CSSSCc2ccccc2)cc1 is 10.8

Sure, the documented TGI for CC/C=C\C/C=C\C[C@H]1C/C=C2/C(=O)C=C[C@@H]2C/C=C\CCC(=O)O1 is 2.43

Sure, the documented TGI for CCOc1ccc2nc3cc(N=Nc4ccc(N)nc4N)ccc3c(N)c2c1 is 61.6
